System: Mycosphaerella graminicola; Anamorph: Septoria tritici
Assay: Leaf Blotch of Wheat (SEPTTR) fungicidal activity on wheat seedlings
Type: in vivo
Settings: Zymoseptoria tritici, 72 h; High Volume, 100 ppm; 3 Day Curative; read-out: SEPTTR 3DC disease control

[
  {
    "CHEMICAL_STRUCTURE": "COc1ccnc(C(=O)N[C@@H](CC(C)C)C(=O)O[C@@H](C)C(c2ccc(F)cc2)c2ccc(F)cc2)c1O",
    "pest or weed control at 100 ppm": "< 80%"
  },
  {
    "CHEMICAL_STRUCTURE": "COc1ccnc(C(=O)N[C@@H](C)C(=O)O[C@@H](C)C(O)(c2ccc(Cl)cc2F)c2ccc(Cl)cc2F)c1O",
    "pest or weed control at 100 ppm": "< 80%"
  },
  {
    "CHEMICAL_STRUCTURE": "COc1ccnc(C(=O)N[C@@H](C)C(=O)O[C@@H](C)C(c2ccc(Br)cc2)c2ccc(Br)cc2)c1O",
    "pest or weed control at 100 ppm": "> 80%"
  },
  {
    "CHEMICAL_STRUCTURE": "COc1ccnc(C(=O)N[C@@H](C)C(=O)O[C@@H](C)C(c2ccc(F)c(Cl)c2)c2ccc(F)c(Cl)c2)c1O",
    "pest or weed control at 100 ppm": "> 80%"
  },
  {
    "CHEMICAL_STRUCTURE": "COc1ccnc(C(=O)N[C@@H](C)C(=O)O[C@@H](C)C(O)(c2ccc(Cl)c(F)c2)c2ccc(Cl)c(F)c2)c1O",
    "pest or weed control at 100 ppm": "< 80%"
  },
  {
    "CHEMICAL_STRUCTURE": "COc1ccnc(C(=O)N[C@H](C(=O)O[C@@H](C)C(c2ccc(F)cc2)c2ccc(F)cc2)C(C)C)c1O",
    "pest or weed control at 100 ppm": "> 80%"
  },
  {
    "CHEMICAL_STRUCTURE": "COc1ccnc(C(=O)N[C@@H](C)C(=O)O[C@@H](C)[C@@H](c2ccccc2)c2ccc(F)cc2)c1O",
    "pest or weed control at 100 ppm": "> 80%"
  }
]

###

Tested on: Mycosphaerella graminicola; Anamorph: Septoria tritici
Assay: Leaf Blotch of Wheat (SEPTTR) fungicidal activity on wheat seedlings
Assay type: in vivo
Details: Zymoseptoria tritici, 24 h; Low Volume, 121.5 g/H; 1 Day Protectant; read-out: SEPTTR 1DP disease control
RESULT_TYPE: pest or weed control at 121.5 g/ha

[
  {
    "CHEMICAL_STRUCTURE": "COc1ccnc(C(=O)N[C@@H](C)C(=O)O[C@@H](C)C(c2ccc(F)c(F)c2)c2ccc(F)c(F)c2)c1OC(C)=O",
    "RESULT": "> 80%"
  },
  {
    "CHEMICAL_STRUCTURE": "C#Cc1ccc(C(c2ccc(C#C)cc2)[C@H](C)OC(=O)[C@H](C)NC(=O)c2nccc(OC)c2OCOC(C)=O)cc1",
    "RESULT": "> 80%"
  },
  {
    "CHEMICAL_STRUCTURE": "COc1ccnc(C(=O)N[C@@H](C)C(=O)O[C@@H](C)C(c2ccc(C)s2)c2ccc(C)s2)c1OC(C)=O",
    "RESULT": "< 80%"
  },
  {
    "CHEMICAL_STRUCTURE": "COc1ccnc(C(=O)N[C@@H](C)C(=O)O[C@@H](C)C(O)(c2ccc(Cl)c(Cl)c2)c2ccc(Cl)c(Cl)c2)c1OCOC(C)=O",
    "RESULT": "> 80%"
  },
  {
    "CHEMICAL_STRUCTURE": "COc1ccnc(C(=O)N[C@@H](C)C(=O)O[C@@H](C)C(c2ccc(C)cc2)c2ccc(C)cc2)c1OC(=O)C(C)C",
    "RESULT": "> 80%"
  },
  {
    "CHEMICAL_STRUCTURE": "COc1ccnc(C(=O)N[C@@H](C)C(=O)O[C@@H](C)C(c2ccc(F)c(C)c2)c2ccc(F)c(C)c2)c1OCOC(C)=O",
    "RESULT": "> 80%"
  },
  {
    "CHEMICAL_STRUCTURE": "COc1ccc(C(c2ccc(OC)cc2)[C@H](C)OC(=O)[C@H](C)NC(=O)c2nccc(OC)c2OCOC(C)=O)cc1",
    "RESULT": "> 80%"
  },
  {
    "CHEMICAL_STRUCTURE": "COc1ccnc(C(=O)N[C@@H](C)C(=O)O[C@@H](C)C(c2ccc(-c3ccccc3)cc2)c2ccc(-c3ccccc3)cc2)c1OCOC(C)=O",
    "RESULT": "< 80%"
  },
  {
    "CHEMICAL_STRUCTURE": "COc1ccnc(C(=O)N[C@@H](C)C(=O)O[C@@H](C)C(c2ccc(Cl)cc2)c2ccc(Cl)cc2)c1OC(C)=O",
    "RESULT": "> 80%"
  },
  {
    "CHEMICAL_STRUCTURE": "COc1ccnc(C(=O)N[C@@H](C)C(=O)O[C@@H](C)C(c2ccc(F)cc2)c2ccc(F)cc2)c1OCOC(=O)C(C)C",
    "RESULT": "> 80%"
  },
  {
    "CHEMICAL_STRUCTURE": "COc1ccnc(C(=O)N[C@@H](C)C(=O)O[C@@H](C)C(c2ccc(F)cc2)c2ccc(F)cc2)c1OC(=O)C(C)C",
    "RESULT": "> 80%"
  },
  {
    "CHEMICAL_STRUCTURE": "COCCC(=O)Oc1c(OC)ccnc1C(=O)N[C@@H](C)C(=O)O[C@@H](C)C(c1ccc(F)cc1)c1ccc(F)cc1",
    "RESULT": "> 80%"
  },
  {
    "CHEMICAL_STRUCTURE": "COc1ccc(C(c2ccc(OC)cc2)[C@H](C)OC(=O)[C@H](C)NC(=O)c2nccc(OC)c2OC(C)=O)cc1",
    "RESULT": "> 80%"
  }
]
